biological target: Wee1-like protein kinase (Homo sapiens)
Sequence (P30291 whole entry): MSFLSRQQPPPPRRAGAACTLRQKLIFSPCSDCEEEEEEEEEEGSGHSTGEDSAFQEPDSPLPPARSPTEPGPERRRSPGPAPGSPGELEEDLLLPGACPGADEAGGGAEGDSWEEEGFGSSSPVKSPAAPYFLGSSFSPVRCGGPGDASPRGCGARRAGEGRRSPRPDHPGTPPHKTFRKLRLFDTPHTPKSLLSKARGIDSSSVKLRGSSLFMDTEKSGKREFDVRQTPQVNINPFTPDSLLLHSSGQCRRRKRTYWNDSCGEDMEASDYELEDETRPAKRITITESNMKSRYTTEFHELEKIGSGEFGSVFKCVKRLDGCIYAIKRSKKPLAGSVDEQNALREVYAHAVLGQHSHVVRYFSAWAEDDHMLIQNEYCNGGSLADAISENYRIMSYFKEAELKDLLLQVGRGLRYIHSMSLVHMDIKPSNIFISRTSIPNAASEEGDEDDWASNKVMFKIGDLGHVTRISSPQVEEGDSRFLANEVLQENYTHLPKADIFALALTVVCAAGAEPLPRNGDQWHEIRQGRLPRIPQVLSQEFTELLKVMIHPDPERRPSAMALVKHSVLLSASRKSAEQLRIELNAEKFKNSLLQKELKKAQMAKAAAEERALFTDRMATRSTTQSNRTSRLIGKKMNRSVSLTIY
ENDPOINT_LABEL: Kd (nM)
Write it as a number; the unit nM goes unstated.

Endpoint output: Kd of Cc1cc(=O)c2c(O)cc3c(c2o1)C(=O)c1c(O)cc(O)cc1C3=O . Value?
1.35

###

Biological target: DNA topoisomerase 1 (Homo sapiens, UniProt P11387)
Sequence (P11387 whole entry): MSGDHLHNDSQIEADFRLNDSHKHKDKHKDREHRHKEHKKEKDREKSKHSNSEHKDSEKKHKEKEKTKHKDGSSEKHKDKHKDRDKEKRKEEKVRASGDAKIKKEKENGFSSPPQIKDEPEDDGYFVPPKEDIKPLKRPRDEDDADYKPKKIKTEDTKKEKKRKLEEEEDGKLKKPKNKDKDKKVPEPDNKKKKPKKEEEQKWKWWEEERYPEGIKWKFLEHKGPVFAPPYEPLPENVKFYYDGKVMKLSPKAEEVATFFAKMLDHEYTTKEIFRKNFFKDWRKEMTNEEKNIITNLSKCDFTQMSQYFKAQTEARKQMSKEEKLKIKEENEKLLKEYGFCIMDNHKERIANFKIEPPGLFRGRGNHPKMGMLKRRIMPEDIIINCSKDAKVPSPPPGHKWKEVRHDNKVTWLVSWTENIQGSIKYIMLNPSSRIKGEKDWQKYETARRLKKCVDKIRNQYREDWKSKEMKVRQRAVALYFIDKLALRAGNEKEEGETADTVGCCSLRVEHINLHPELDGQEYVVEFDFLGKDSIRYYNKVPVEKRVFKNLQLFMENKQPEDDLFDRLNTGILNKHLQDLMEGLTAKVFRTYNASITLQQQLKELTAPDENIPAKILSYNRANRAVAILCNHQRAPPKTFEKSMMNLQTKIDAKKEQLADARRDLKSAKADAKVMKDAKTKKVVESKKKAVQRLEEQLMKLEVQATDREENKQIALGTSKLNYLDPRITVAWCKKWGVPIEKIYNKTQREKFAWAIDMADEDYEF
ENDPOINT_LABEL: Kd
Mention the unit after the number when you answer.

{"STRUCTURE_SMILES": "CC[C@@]1(O)C(=O)OCc2c1cc1n(c2=O)Cc2c-1nc1ccccc1c2/C=N/c1ccccc1C", "Kd": "0.296 nM"}

Next compound, please.
Sample CC[C@@]1(O)C(=O)OCc2c1cc1n(c2=O)Cc2c-1nc1ccccc1c2/C=N\OCCCO — what was its Kd?
2.65 nM
